# assayedSystem: Eosinophil peroxidase (EPX) (UniProt P11678;P11678 P11678:140-250,P11678:251-715)
# Sequence (P11678 140-250, chain 1 of 2): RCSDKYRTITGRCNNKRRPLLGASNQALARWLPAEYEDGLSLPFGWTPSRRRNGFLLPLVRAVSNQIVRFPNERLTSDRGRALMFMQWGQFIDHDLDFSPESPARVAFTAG
# Sequence (P11678 251-715, chain 2 of 2): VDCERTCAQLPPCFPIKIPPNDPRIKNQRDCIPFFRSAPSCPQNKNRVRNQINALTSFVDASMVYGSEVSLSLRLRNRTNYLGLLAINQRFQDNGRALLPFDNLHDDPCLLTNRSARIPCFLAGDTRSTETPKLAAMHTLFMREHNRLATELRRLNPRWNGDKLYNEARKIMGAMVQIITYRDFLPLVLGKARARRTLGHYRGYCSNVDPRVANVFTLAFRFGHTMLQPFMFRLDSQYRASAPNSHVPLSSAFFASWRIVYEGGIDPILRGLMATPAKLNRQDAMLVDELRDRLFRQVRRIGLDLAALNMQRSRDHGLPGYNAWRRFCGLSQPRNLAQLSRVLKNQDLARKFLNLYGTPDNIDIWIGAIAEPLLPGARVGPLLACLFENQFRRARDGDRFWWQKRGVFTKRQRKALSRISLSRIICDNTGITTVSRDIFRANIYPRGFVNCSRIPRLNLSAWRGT
# protocolDetails: EMSA; 1x SB (50 mM Tris, 1 M NaCl, 5 mM MgCl2, 2 mM KCl, pH 9), poly(dI-dC); from loss of free aptamer band
# testParameters: tags: Cedarlane #342-60-0.1; untagged commercial protein; label: 5'-FAM; 3' stem loop
pKd: −log10 of the molar value.
observable: pKd

binder="EAP1-05 (ssDNA) DNA: ATGCCATCCTACCAACCAGGGGGACAGTGCAAAGGGGTAGGGAGGGGGCTAGGGGGGAGCTCTGAACTGG" observable=pKd resultnumber=8.04
